System under test: Gal6S(b1-4)GlcNAc6S
Assay method text: glycan array binding signal (z-score within array); higher = stronger binding
Settings: glycan notation: IUPAC condensed, linker removed
Only a selection was taken, and the strongest signals are over-represented in it overall.
Parameter: glycan array binding signal (z-score)
Reply with the value as a number alone.

Examples with their reported glycan array binding signal (z-score) follow.
Morniga (Morus nigra) (protein) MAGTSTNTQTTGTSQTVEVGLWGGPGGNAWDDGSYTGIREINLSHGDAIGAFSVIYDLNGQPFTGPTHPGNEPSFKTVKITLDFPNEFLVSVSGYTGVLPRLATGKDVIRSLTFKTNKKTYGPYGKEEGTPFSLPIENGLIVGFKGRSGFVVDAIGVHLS	-0.337
EEA (Euonymus europaeus) (protein) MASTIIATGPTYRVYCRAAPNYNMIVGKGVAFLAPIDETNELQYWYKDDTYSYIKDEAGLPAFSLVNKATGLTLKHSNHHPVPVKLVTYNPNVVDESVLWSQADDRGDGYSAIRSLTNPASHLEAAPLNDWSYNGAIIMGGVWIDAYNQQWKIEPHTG	-0.097
AAA (Anguilla anguilla), Q7SIC1 (protein) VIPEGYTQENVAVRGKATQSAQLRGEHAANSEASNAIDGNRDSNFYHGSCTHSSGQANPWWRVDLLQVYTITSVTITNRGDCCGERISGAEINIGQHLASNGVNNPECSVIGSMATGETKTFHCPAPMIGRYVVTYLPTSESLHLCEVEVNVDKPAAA	-0.292
WGA (Triticum vulgare) (protein) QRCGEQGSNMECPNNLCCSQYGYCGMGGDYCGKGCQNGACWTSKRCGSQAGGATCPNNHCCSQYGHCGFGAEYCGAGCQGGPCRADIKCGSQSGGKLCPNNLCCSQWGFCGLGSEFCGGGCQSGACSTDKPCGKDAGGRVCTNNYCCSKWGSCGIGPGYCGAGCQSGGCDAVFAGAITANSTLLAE	-0.371
KISKRILTGKK [NK11 (Sus scrofa)]	2.58

(Q) Input NcCVNHO (Neurospora crassa), Q7S6U4 (protein) MSFHVTAEDARIEVRDNRTILFARLRREDGEWNDASYELDQIIGNNDGHFQWGGQNFTETAEDIRFHPKEGAAEQPILRARLRDCNGEFHDRDVNLTEIVENVNGEFQAKF , output reported glycan array binding signal (z-score).
(A) -0.172
